Target: T1, cynomolgus EREG (Biacore analyte) (cynomolgus monkey, UniProt O14944 63-108 (human entry), limits assumed)
T1 construct: also called cynomolgus monkey EREG; cEREG
T1 sequence (O14944 other isoform, or with tags, fused parts or gaps limits assumed): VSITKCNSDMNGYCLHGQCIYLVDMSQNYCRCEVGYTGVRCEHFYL
Experiment: SPR (Biacore T100), antibody captured on Protein A, EREG as analyte, single-cycle kinetics

Binder	koff, s⁻¹
H87-G1d/LB-k (antibody, human IgG1, kappa, V domains shown) VH: QDQLVQSGAEVKKPGASVKVSCKASGFNIKDTYIQWVRQAPGQGLEWMGRIDPLTGQTKYQEKFEGRVTITADTSTNTAYMELSSLRSEDTAVYYCVRSGTSFDFWGQGTLVTVSS VL: DIQMTQSPSSLSASVGDRVTITCKASQDIHKYIAWYQQKPGQAPRLLIQYTSTLQPGVPSRFSGSGSGTDYTFTISSLQPEDIATYYCLQYDNLRTFGGGTKVEIKR	0.0045
chimeric antibody EP27 (cH-G1/cL-k) (antibody, human IgG1, kappa, V domains shown, mouse EP27 variable regions with human IgG1 (G1) and kappa constant regions; also called chimeric EP27) VH: EDQLQQSGAELVKPGASVKLSCTASGFNIKDTYIQWVKLRPEQGLEWIGRIDPLNGNTKYVPKFQGKATITADTSSNTAYLQLSSLTSEDTAVYYCVRSGTLFDFWGQGTTLTVSS VL: DIQMTQSPSSLSASLGGKVTITCKASQDIHKYIAWYQHKPGKGPRLLIQYTSTLQPGIPSRFSGSGSGRDYSFSISNLEPEDIATYYCLQYDNLRTFGGGTKLEIKR	0.0052
H240-G1d/L73-k (antibody, human IgG1, kappa, V domains shown) VH: QDQLVQSGAEVKKPGASVKVSCKASGFNIKDTYIQWVRQAPGQGLEWMGRIDPLRKQTKYREKFEGRVTITADTSTNTAYMELSSLRSEDTAVYYCVRSGREFDYWGQGTLVTVSS VL: DIQMTQSPSSLSASVGDRVTITCRASQDIHKYIAWYQQKPGQAPRLLIQYTSTLQPGVPSRFSGSGSGTDYTFTISSLQPEDIATYYCLQYEQLRTFGGGTKVEIKR	0.00029
